pest or weed control at 25 ppm reference
Test system: Phakopsora pachyrhizi
Experiment: Asian Soybean Rust fungicidal activity (PHAKPA)
Settings: Phakopsora pachyrhizi, in Glycine max, 72 h, read-out: PHAKPA 3DC % Control rating, soybean, high volume, 25 ppm, 3 Day Curative

Examples with answers:
>>> measured("COc1ccnc(C(=O)N[C@@H](C)C(=O)O[C@@H](C)[C@H](Oc2ccccc2)c2ccc(F)cc2OCC(F)F)c1OC(C)=O")
"< 0%"
>>> measured("COc1ccnc(C(=O)N[C@@H](C)C(=O)O[C@@H](C)[C@H](Oc2ccccc2)c2ccc(C)cc2F)c1OCOC(C)=O")
"< 0%"

Request: Give the value of pest or weed control at 25 ppm reported for the following: COc1cc(F)ccc1[C@@H](OCC(F)F)[C@H](C)OC(=O)[C@H](C)NC(=O)c1nccc(OC)c1OC(C)=O
Result: < 80%

* * *

Tested on: Alternaria solani
Test: Tomato Early Blight fungicidal activity (ALTESO)
Format: in vivo
Settings: 24 h, high volume, 1 Day Protectant, read-out: ALTESO % Control rating
measurement.name: pest or weed control at 100 ppm

>>> measured("COc1ccnc(C(=O)N[C@@H](C)C(=O)O[C@@H](C)[C@H](Oc2ccccc2)c2ccc(F)cc2C)c1OCOC(C)=O [Example 259]")
"< 0%"
>>> measured("COc1ccnc(C(=O)N[C@@H](C)C(=O)O[C@@H](C)C(Oc2ccc(F)cc2)c2ccccc2)c1OC(C)=O (stereo partly drawn) [Example 236]")
"< 80%"
>>> measured("COc1ccnc(C(=O)N[C@@H](C)C(=O)O[C@@H](C)[C@H](Oc2ccccc2)c2ccc(C)cc2)c1OCOC(C)=O [Example 252]")
"< 0%"
>>> measured("COc1cc(F)ccc1[C@@H](Oc1ccccc1)[C@H](C)OC(=O)[C@H](C)NC(=O)c1nccc(OC)c1OCOC(C)=O [Example 256]")
"< 80%"
>>> measured("COc1ccnc(C(=O)N[C@H](C)C(=O)O[C@H](C)[C@@H](Oc2ccccc2)c2ccccc2)c1OCOC(C)=O [Example 186]")
"< 80%"
>>> measured("COc1ccnc(C(=O)N[C@@H](C)C(=O)O[C@@H](C)[C@H](Oc2cc(F)cc(Cl)c2)c2ccccc2)c1OC(C)=O [Example 207]")
"< 0%"
>>> measured("COc1ccnc(C(=O)N[C@@H](C)C(=O)O[C@@H](C)[C@H](Oc2cccc(F)c2)c2ccccc2)c1OCOC(C)=O [Example 187]")
"< 80%"
>>> measured("COc1ccnc(C(=O)N[C@@H](C)C(=O)O[C@@H](C)[C@H](Oc2ccccc2)c2ccccc2)c1OCOC(C)=O [Example 183]")
"< 80%"
>>> measured("COc1ccnc(C(=O)N[C@@H](C)C(=O)O[C@@H](C)[C@H](Oc2cccc(Cl)c2)c2ccccc2)c1OCOC(C)=O [Example 202]")
"< 0%"
>>> measured("COc1ccnc(C(=O)N[C@@H](C)C(=O)O[C@@H](C)[C@H](Oc2ccccc2Cl)c2ccccc2)c1OC(C)=O [Example 205]")
"< 80%"

Request: For Alternaria solani, give the measured pest or weed control at 100 ppm of the entry COc1ccccc1[C@@H](Oc1ccccc1)[C@H](C)OC(=O)[C@H](C)NC(=O)c1nccc(OC)c1OCOC(C)=O [Example 255]
Result: < 0%

Request: For Alternaria solani, give the measured pest or weed control at 100 ppm of the entry COc1ccnc(C(=O)N[C@@H](C)C(=O)O[C@@H](C)[C@H](Oc2ccccc2)c2ccc(F)cc2F)c1OCOC(C)=O [Example 250]
Result: < 0%

These data points were gathered from patent US20180002288A1.
